B1: Azoarcus group I ribozyme (parent)
chain: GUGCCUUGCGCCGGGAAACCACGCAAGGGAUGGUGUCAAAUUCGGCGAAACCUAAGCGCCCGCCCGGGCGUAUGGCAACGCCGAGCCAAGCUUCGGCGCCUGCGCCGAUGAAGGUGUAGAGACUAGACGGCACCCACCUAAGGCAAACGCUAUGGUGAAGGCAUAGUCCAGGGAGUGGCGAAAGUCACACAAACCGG

Variants of: B1
MEASUREMENT NOTES: reverse-splicing fitness (ratio to wild type); higher = more active; in vitro selection; Mg2+ level not given
Decision: reverse-splicing fitness compared against 0.01; not below it gives criterion met, below it gives criterion not met.

Look over these answered cases.
MUTATION NAME | LABEL
C82A A111U A120G A145U C150U C169G U176C | criterion met
A120U C150U C169U U176G | criterion not met
A120C A145G C150A C169A | criterion met

Query: API: above_or_equal(metric=reverse-splicing fitness, cutoff=0.01) for item A120G A145U C150U C169U U176A
Result: criterion met

Query: API: above_or_equal(metric=reverse-splicing fitness, cutoff=0.01) for item C82U A111U A120U A145C C150G C169G U176A
Result: criterion not met

Query: API: above_or_equal(metric=reverse-splicing fitness, cutoff=0.01) for item A111G A120U A145C C150A C169A
Result: criterion not met

Query: API: above_or_equal(metric=reverse-splicing fitness, cutoff=0.01) for item A111U A120U C150A C169G U176G
Result: criterion not met

Query: API: above_or_equal(metric=reverse-splicing fitness, cutoff=0.01) for item C82A A120C A145C C150A C169G U176G
Result: criterion not met

Query: API: above_or_equal(metric=reverse-splicing fitness, cutoff=0.01) for item C82G A111G A145U C150U C169G U176A
Result: criterion met

Query: API: above_or_equal(metric=reverse-splicing fitness, cutoff=0.01) for item A111G A120G C150U C169G U176G
Result: criterion not met

Query: API: above_or_equal(metric=reverse-splicing fitness, cutoff=0.01) for item C82A A120U A145G C150G C169U
Result: criterion not met
